target: hGIPR (Homo sapiens); experiment: Functional cAMP activation in the presence of 0.1% casein (no HSA); format: cell-based; details: in the presence of 0.1% casein (no HSA); geometric mean; read-out: Relative cAMP EC50, hGIPR;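 further: intracellular cAMP rise after 30 min at 37 °C read by HTRF against a standard curve, scaled between buffer alone (0%) and top control ligand concentration (100%), four-parameter fit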
Sequence (P48546 22-466): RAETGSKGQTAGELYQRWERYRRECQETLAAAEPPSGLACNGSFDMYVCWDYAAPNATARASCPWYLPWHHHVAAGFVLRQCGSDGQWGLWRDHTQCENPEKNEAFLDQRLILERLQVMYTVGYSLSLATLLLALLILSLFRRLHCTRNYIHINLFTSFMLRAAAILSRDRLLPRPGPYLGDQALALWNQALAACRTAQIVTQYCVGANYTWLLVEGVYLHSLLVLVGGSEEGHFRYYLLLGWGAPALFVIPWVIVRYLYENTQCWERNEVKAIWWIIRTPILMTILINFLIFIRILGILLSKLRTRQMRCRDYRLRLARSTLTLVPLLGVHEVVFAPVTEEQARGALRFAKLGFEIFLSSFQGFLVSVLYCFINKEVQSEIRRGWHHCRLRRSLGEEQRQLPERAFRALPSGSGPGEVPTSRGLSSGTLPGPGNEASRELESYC
Starred links: 1 amine or outer side, 2 acyl side, 3 side chain; linkers in the order of their positions; H or OH if unused. Non-standard residues stand in square brackets, D forms with d. Groups on a side chain read outwards from the residue. No end group written: not given here. *: point of attachment. C20 diacid = O=C(O)CCCCCCCCCCCCCCCCCCC(=O)*; C18 diacid = O=C(O)CCCCCCCCCCCCCCCCC(=O)*; γGlu = O=C(O)[C@H](CCC(=O)[*:2])N[*:1]; NMeY = CN[C@@H](Cc1ccc(O)cc1)C(=O)O; αMe4Pal = C[C@](N)(Cc1ccncc1)C(=O)O; αMeY = C[C@](N)(Cc1ccc(O)cc1)C(=O)O; αMeF = C[C@](N)(Cc1ccccc1)C(=O)O; 4Pal = N[C@@H](Cc1ccncc1)C(=O)O; αMeL = CC(C)C[C@](C)(N)C(=O)O; Orn = NCCC[C@H](N)C(=O)O; AEEA = NCCOCCOCC(=O)O; Aib = CC(C)(N)C(=O)O
Threshold 0.2 nM: EC50 strictly smaller gives T, otherwise F.

Use the examples below as a reference point.
substance="Y[Aib]QGTFTSD[4Pal]S[Orn][αMeL]LDKK([γGlu-γGlu-C18 diacid])AQ[Aib]AFIE[αMeY]LLEGGPSSGAPPPSGSEE-NH2 [Example 944]" assigned_class=F
substance="H-[NMeY][Aib]QGT[αMeF]TSDYSILLDKIAAK([AEEA-AEEA-γGlu-C20 diacid])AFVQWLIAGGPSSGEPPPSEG-NH2 [Example 300]" assigned_class=T
substance="H-Y[Aib]QGTFTSDFSK[αMeL]LDKK([AEEA-γGlu-C20 diacid])AQ[Aib]AFIEYLLAGGPSSGAPPPSEG-NH2 [Example 10]" assigned_class=F
substance="H-Y[Aib]QGTFTSDFS[Orn][αMeL]LDKK([AEEA-γGlu-C18 diacid])AQ[αMe4Pal]EFIEYLIE[Aib]GPSSGAPPPSGS-NH2 [Example 879]" assigned_class=T
substance="H-Y[Aib]QGTFTSD[4Pal]SK[αMeL]LDKK([AEEA-γGlu-C18 diacid])AQ[Aib]AFIEYLIE[Aib]GPSSGAPPPSGSEEE-NH2 [Example 903]" assigned_class=F

Input: API: query returns whether the substance falls strictly under 0.2 nM in EC50. Query: H-Y[Aib]QGTFTSD[4Pal]SQ[αMeL]LD[Orn]K([AEEA-γGlu-C18 diacid])AQ[αMe4Pal]AFIE[αMeY]LIE[Aib]GPSSGEPPPSGSEE-NH2 [Example 1097]
Output: T

Input: API: query returns whether the substance falls strictly under 0.2 nM in EC50. Query: H-Y[Aib]QGTFTSD[4Pal]SQ[αMeL]LDKK([AEEA-γGlu-C18 diacid])AQ[αMe4Pal]AFIE[αMe4Pal]LIEGGPSSGAPPPSGSEE-NH2 [Example 954]
Output: F

Input: API: query returns whether the substance falls strictly under 0.2 nM in EC50. Query: H-Y[Aib]QGTFTSDFS[Orn][αMeL]LDKK([AEEA-AEEA-γGlu-C18 diacid])AQ[Aib]AFIEYLLE[Aib]GPSSGAPPPSGS-NH2 [Example 75]
Output: T

Input: API: query returns whether the substance falls strictly under 0.2 nM in EC50. Query: H-Y[Aib]QGTFTSDFSK[αMeL]LDKK([AEEA-γGlu-C20 diacid])AQ[Aib]AFIEYLLE[Aib]GPSSGAPPPSGS-NH2 [Example 45]
Output: T

Input: API: query returns whether the substance falls strictly under 0.2 nM in EC50. Query: H-Y[Aib]QGTFTSDFS[Orn][αMeL]LDKK([AEEA-γGlu-C18 diacid])AQ[αMe4Pal]DFIEYLIE[Aib]GPSSGAPPPSGS-NH2 [Example 880]
Output: T

Input: API: query returns whether the substance falls strictly under 0.2 nM in EC50. Query: H-Y[Aib]QGTFTSDFS[Orn][αMeL]LDKK([AEEA-γGlu-C18 diacid])AQ[Aib]AFIEYLLEGGESSGAPPPGGS-NH2 [Example 161]
Output: F
